Data credit: patent US8993585B2

System: Human primary T cells
Test: IL-2 ELISA, Human Primary T Cell, Anti-CD3+CD28+ (Example 3)
Format: cell-based
Conditions Used: Homo sapiens, T-cell, 24 h, anti-CD3+CD28 stimulation
Value Kind: IC50 (nM)

Recorded IC50, per entry:
>>> print(df.to_string())
                              record_smiles            system_name  value_kind  unit_info  readout_value
0  CN1C(C)(C)CC(Nc2nc(Nc3ccc(-n4cccc4)c(C#N)c3)ncc2Cl)CC1(C)C  Human primary T cells        IC50         nM            227
1  COc1cc(Nc2ncc(F)c(NC3CC(C)(C)N(C)C(C)(C)C3)n2)cc(-n2nnnc2C)c1  Human primary T cells        IC50         nM           29.5
2  CC(C)N1C(=O)C(C)(C)Oc2cc(Nc3ncc(F)c(NC4CC(C)(C)N(C)C(C)(C)C4)n3)ccc21  Human primary T cells        IC50         nM            298

I: CN1C(C)(C)CC(Nc2nc(Nc3cccc(OC(F)(F)F)c3)ncc2C(F)(F)F)CC1(C)C
II: COc1cc(Nc2ncc(Br)c(NC3CC(C)(C)N(C)C(C)(C)C3)n2)cc(OC)c1
III: CCN1CCN(c2ccc(Nc3ncc(F)c(NC4CC(C)(C)N(C)C(C)(C)C4)n3)cc2Cl)CC1
IV: COc1ccc(Nc2ncc(F)c(NC3CC(C)(C)N(C)C(C)(C)C3)n2)cn1
Ordering criterion: IC50; begin with the maximum. // list labels; follow requested order I, IV, II, III
(I: 8190 nM, IV: 5320 nM, II: 250 nM, III: 110 nM)

* * *

System: Human primary T cells
Test: IL-2 ELISA, Human Primary T Cell, Anti-CD3+CD28+ (Example 3)
Format: cell-based
Conditions Used: Homo sapiens, T-cell, 24 h, anti-CD3+CD28 stimulation
Value Kind: IC50 (nM)

>>> print(df.to_string())
                              record_smiles            system_name  value_kind  unit_info  readout_value
0  Cc1ccc(C)n1-c1cc(Nc2ncc(F)c(NC3CC(C)(C)NC(C)(C)C3)n2)ccc1OCCN1CCCC1  Human primary T cells        IC50         nM           1770

a: CN1CCC(Nc2nc(Nc3ccc(N4CCN(C)CC4)c(Cl)c3)ncc2F)CC1
b: COc1cc(Nc2ncc(F)c(NC3CC(C)(C)N(C)C(C)(C)C3)n2)cc(-n2cnnn2)c1
c: CN1C(C)(C)CC(Nc2nc(Nc3ccc(S(N)(=O)=O)cc3)ncc2F)CC1(C)C
Ordering criterion: IC50; begin with the maximum. // list labels; follow requested order c, a, b

* * *

Test system: Human primary T cells
Test: IL-2 ELISA, Human Primary T Cell, Anti-CD3+CD28+ (Example 3)
Type: cell-based
Conditions Used: Homo sapiens, T-cell, 24 h, anti-CD3+CD28 stimulation
Value Kind: IC50 (µM)

                                   compound  value_kind  readout_value
0  CN1C(C)(C)CC(Nc2nc(Nc3nc(-c4ccc(F)cc4F)cs3)ncc2F)CC1(C)C [II-141]        IC50              1

P: CN1C(C)(C)CC(Nc2nc(Nc3ccc4[nH]ncc4c3)ncc2F)CC1(C)C [II-38]
Q: CCOc1ccc(Nc2ncc(C(N)=O)c(NC3CC(C)(C)N(C)C(C)(C)C3)n2)cc1-n1nnnc1CC [Compound I-420]
For the two items P and Q , which reports the higher IC50 value? Indicate your choice by writing its label. P
(P: 0.827 µM, Q: 0.25 µM)

P: CN1C(C)(C)CC(Nc2nc(Nc3nc(-c4ccc5c(c4)OCCO5)cs3)ncc2F)CC1(C)C [II-132]
Q: COc1ccc(Nc2ncc(F)c(N(Cc3ccc4ccccc4n3)C3CC(C)(C)N(C)C(C)(C)C3)n2)cc1OC(F)F [Compound I-321]
I would appreciate it if you could say which entry, P or Q , has the lower IC50 value. Indicate your choice by writing its label. P
